Entry source: patent US20240287054A1

System: MYCN G4 DNA
Test Method Notes: Microscale thermophoresis (MST) with 3′-Cy5 MYCN G4 DNA
Parameters: species or system human
Test Settings: 3′-Cy5 labeled MYCN G4, 1:1 binding model; read-out: binding affinity by MST
Measure Name: Kd (µM)
Reply numerically in µM, unit not repeated.

# compound `COc1ccc(-c2noc(-c3ccc(NCCCN4CCCC4)nn3)n2)cc1` ; its Kd = 8.1

---

System: HIV HP-G4
Test Method Notes: FIA binding test with HIV HP-G4 ((3+1) hybrid structure)
Measure Name: Kd (µM)
Reply numerically in µM, unit not repeated.

# compound COc1ccc(-c2noc(-c3ccc(NCCCNc4c5ccc(Cl)cc5nc5ccc(OC)cc45)nn3)n2)cc1 [B33] ; its Kd = 0.151

---

System: MYCN G4 DNA (2-AP at A11)
Test Method Notes: 2-Aminopurine (2-AP) fluorescence titration, A11-labeled MYCN G4
Type: binding, human
Test Settings: 2-AP at A11 of MYCN G4
Protocol: 2-Aminopurine (2-AP) fluorescence titration. Fluorescence titrations based on 2-aminopurine labeling were performed using the protocol reported previously. […] To obtain the background fluorescence, small molecule solutions without DNA were also prepared in the same plate. After incubation for 30 min at RT, the plate was briefly centrifuged and scanned in Synergy Mx microplate reader (BioTek) with Ex 310 nm/Em 365 nm. […]
Measure Name: A11 2AP KD

• COc1ccc(-c2noc(-c3ccc(NCCN4CCN(C)CC4)nn3)n2)cc1 = sub-micromolar binders
• COc1ccc(-c2noc(-c3ccc(NCCCN4CCCCCC4)nn3)n2)cc1 = sub-micromolar binders
• COc1ccc(-c2noc(-c3ccc(NCCCN4CCC(N5CCCCC5)CC4)nn3)n2)cc1 = sub-micromolar binders
• COc1ccc(-c2noc(-c3ccc(NCCCN4CCC(C)CC4)nn3)n2)cc1 = sub-micromolar binders

---

System: MYCN G4 DNA (2-AP at A11)
Test Method Notes: 2-Aminopurine (2-AP) fluorescence titration, A11-labeled MYCN G4
Test Settings: 2-AP at A11 of MYCN G4
Measure Name: log10 Kd (log10 of the value in µM)
Kindly note that the scale is log10 and the underlying Kd is in µM.

- COc1ccc(-c2noc(-c3ccc(NCCN(C)C)nn3)n2)cc1: 0.00
- COc1ccc(-c2noc(-c3ccc(NCCC(N)=O)nn3)n2)cc1: 1.12
- COc1ccc(-c2noc(-c3ccc(NCCCN(C)C)nn3)n2)cc1: 0.08
- COc1ccc(-c2noc(-c3ccc(NCCCN4CCCC4)nn3)n2)cc1: 0.51
- COc1ccc(-c2noc(-c3ccc(NCCN4CCOCC4)nn3)n2)cc1: 0.51

Result for `COc1ccc(-c2noc(-c3ccc(NCCN4CCN(C)CC4)nn3)n2)cc1` , tested on MYCN G4 DNA (2-AP at A11), log10 Kd: -0.05

Result for `COc1ccc(-c2noc(-c3ccc(NCCCN4CCN(C)CC4)nn3)n2)cc1` , tested on MYCN G4 DNA (2-AP at A11), log10 Kd: 0.00

Result for `COCCNc1ccc(-c2nc(-c3ccc(OC)cc3)no2)nn1` , tested on MYCN G4 DNA (2-AP at A11), log10 Kd: 0.08

Result for `COc1ccc(-c2noc(-c3ccc(NCCCN4CCCCCC4)nn3)n2)cc1` , tested on MYCN G4 DNA (2-AP at A11), log10 Kd: -0.22

Result for `COc1ccc(-c2noc(-c3ccc(NCCCN4CCC(N5CCCCC5)CC4)nn3)n2)cc1` , tested on MYCN G4 DNA (2-AP at A11), log10 Kd: -0.70

Result for `COc1ccc(-c2noc(-c3ccc(NCCCN4CCC(C)CC4)nn3)n2)cc1` , tested on MYCN G4 DNA (2-AP at A11), log10 Kd: -0.15
